MEASURED_ON: hAR (Homo sapiens, UniProt P10275)
Sequence (P10275 1-920): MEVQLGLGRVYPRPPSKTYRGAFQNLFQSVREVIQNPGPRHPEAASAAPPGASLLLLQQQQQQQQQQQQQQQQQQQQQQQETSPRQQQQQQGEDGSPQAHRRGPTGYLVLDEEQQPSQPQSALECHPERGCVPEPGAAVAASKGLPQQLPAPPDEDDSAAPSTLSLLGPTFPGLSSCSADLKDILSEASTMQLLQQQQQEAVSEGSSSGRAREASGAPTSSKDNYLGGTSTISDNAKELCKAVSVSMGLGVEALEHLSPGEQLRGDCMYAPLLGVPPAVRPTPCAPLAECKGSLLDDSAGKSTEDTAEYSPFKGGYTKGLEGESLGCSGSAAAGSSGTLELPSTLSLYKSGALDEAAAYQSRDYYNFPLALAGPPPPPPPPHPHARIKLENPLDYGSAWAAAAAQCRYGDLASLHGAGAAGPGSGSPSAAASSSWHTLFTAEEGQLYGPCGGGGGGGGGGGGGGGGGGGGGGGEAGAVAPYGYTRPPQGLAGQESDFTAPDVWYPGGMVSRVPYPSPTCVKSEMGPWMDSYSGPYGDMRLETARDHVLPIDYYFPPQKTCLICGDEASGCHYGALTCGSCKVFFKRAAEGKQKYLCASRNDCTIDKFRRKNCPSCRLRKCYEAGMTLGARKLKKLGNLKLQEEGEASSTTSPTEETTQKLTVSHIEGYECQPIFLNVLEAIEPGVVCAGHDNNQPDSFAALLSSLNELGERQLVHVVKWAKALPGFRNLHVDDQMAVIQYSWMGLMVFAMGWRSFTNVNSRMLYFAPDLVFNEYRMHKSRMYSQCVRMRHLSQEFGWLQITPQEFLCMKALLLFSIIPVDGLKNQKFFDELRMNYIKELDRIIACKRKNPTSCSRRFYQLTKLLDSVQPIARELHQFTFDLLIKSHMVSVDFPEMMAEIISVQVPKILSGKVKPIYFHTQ
ASSAY_SUMMARY: AR activation, slp-ARE-Luc reporter in HepG2 cells transfected with pCMVhAR
MEASURED_PROPERTY: pEC50
A value of pEC50 is the negative decimal logarithm of a concentration given in moles per litre.

INPUT: I'd like to know its pEC50. The molecule in question is BrC[C@@H](Br)[C@H]1CC[C@@H](Br)[C@H](Br)C1 (mixture of isomers)
OUTPUT: 6.53
